Readout Label: melting point

What does the record list as melting point for "O=C(NOCCO)c1ccc(F)cc1Nc1ccc(I)cc1F" ? 117 to 119 °C

What does the record list as melting point for "COc1ccc(C2(c3nc(N)nc(N)n3)CCCCC2)cc1" ? 159 to 163 °C

What does the record list as melting point for "CCOC(=O)c1ccc(-n2ccc(=O)cc2)cc1" ? 178 to 180 °C

What does the record list as melting point for "COc1cccc(CC(=O)O)c1OCCCc1cn(-c2ccc(NC(C)=O)cn2)nc1C(C)C" ? 158 to 159 °C

What does the record list as melting point for "CCNC(=S)NC1=Nc2ccc(OC(F)(F)F)cc2CS1" ? 169 to 172 °C

What does the record list as melting point for "COC(=O)c1ccc(CCc2csc(NC(C)=O)n2)cc1" ? 170 to 171 °C

What does the record list as melting point for "C=CCOc1nc(Nc2ccc(OC)nc2)nc2c1ncn2CCCC" ? 147 to 149 °C

What does the record list as melting point for COc1ccc(C2C=C3CN(C)CCC3C3C(=O)N(C)C(=O)C23)cc1 (stereo unspecified) ? 129 to 130 °C

What does the record list as melting point for "O=S(=O)(Nc1cccnc1Nc1ccccc1)c1ccccc1Cl" ? 140 to 141 °C

What does the record list as melting point for "CSc1ccc(COC(=O)OCc2ccc([N+](=O)[O-])cc2)cc1" ? 84 to 86 °C

What does the record list as melting point for "O=C(C=Cc1cncc(F)c1)NCCCCN1CCN(C(c2ccccc2)c2ccccc2)CC1" ? 128 to 129 °C

What does the record list as melting point for "COc1cc2c(c3c1OC(C)(C)C3)C(c1cccc(-c3ccc(NC(C)=O)nc3)c1)=NC(C)(C)C2" ? 208 to 209 °C

What does the record list as melting point for "Cc1nnc2nc(-c3ccccc3F)cnn12" ? 227 to 229 °C

What does the record list as melting point for "Cc1cnc(CNC(=O)c2sc(N3CCN(Cc4ccc(C(F)(F)F)cc4)C3=O)nc2C)cn1" ? 172 to 173 °C

What does the record list as melting point for "N#Cc1cc(F)c(NN)cc1F" ? 158 °C

What does the record list as melting point for CCOC(=O)C(Cc1ccc(C(F)(F)F)c(F)c1)C(=O)c1ccc(F)cc1 (stereo unspecified) ? 56 to 57 °C

What does the record list as melting point for CN1CCC(C2(O)CC(c3ccc(F)cc3)c3ccc(F)cc32)CC1 (stereo unspecified) ? 146 to 147 °C

What does the record list as melting point for "Cc1cccc2c(=O)nc(-c3cccc(C(=O)NCCCCCCNC(=O)OC(C)(C)C)n3)sc12" ? 171 to 172 °C

What does the record list as melting point for "O=C1NC(=S)SC1=Cc1ccc(Oc2ccccc2)cc1" ? 195 to 200 °C

What does the record list as melting point for "COC(=O)c1ccccc1S(=O)(=O)Cc1c(O[C@H](Cn2ccnc2)c2ccccc2)ccc2c1CCCC2=O" ? 203 to 205 °C

What does the record list as melting point for "CCCn1nc2c(N)nc3ccccc3c2c1CCN(CC)C(N)=O" ? 206 to 207 °C

What does the record list as melting point for "CCOC(=O)C=C(c1ccc(Cl)cc1)c1ccc(Cl)cc1" ? 54 to 56 °C

What does the record list as melting point for CC(C(=O)O)c1cccs1 (stereo unspecified) ? 75 to 75.5 °C

What does the record list as melting point for "Clc1nnc(Cl)c2cc3ccccc3cc12" ? 224 to 228 °C

What does the record list as melting point for "O=C(O)c1ccc2c(c1)C(=O)C(=Cc1cccs1)O2" ? 310 to 312 °C

What does the record list as melting point for CC(C)(C)c1cc(C2NC(=O)NC2c2ccccc2)cc(C(C)(C)C)c1O (stereo unspecified) ? > 300 °C

What does the record list as melting point for O=C(CC(O)(c1cc(Cl)cc(Cl)c1)C(F)(F)F)c1ccc(-n2cncn2)nc1 (stereo unspecified) ? 135 to 136 °C

What does the record list as melting point for "O=C(CCCCCCOc1ccc(-c2ccccc2)cc1)NO" ? 147 to 149 °C

What does the record list as melting point for O=C1NC(=O)C(Cc2ccc(OCCON=Cc3ccccc3)cc2)S1 (stereo unspecified) ? 126 to 129 °C

What does the record list as melting point for "CCCN(C1CCC1)[C@H]1COc2c(F)ccc(C(N)=O)c2C1" ? 107 to 109 °C

What does the record list as melting point for "CSc1ccc(-n2cnc3ccc(-c4nnc(CCc5cccc(C(F)(F)F)c5)o4)cc32)cc1" ? 167 to 168 °C

What does the record list as melting point for "COc1cc2ncnc(N3CCC(CN4CCCN(C(C)C)S4(=O)=O)CC3)c2cc1OC" ? 158 to 161 °C

What does the record list as melting point for "O=[N+]([O-])c1c(Cl)ccc(S(=O)(=O)Oc2ccccc2)c1Cl" ? 91 °C

What does the record list as melting point for c1ccc(CC2CNCCN2)cc1 (racemic) ? 80 to 81 °C

What does the record list as melting point for O=C(NC1CCC(CCN2CCN(c3nccc4c3CCO4)CC2)CC1)C(O)C(F)(F)F (racemic) ? 204 °C

What does the record list as melting point for "COc1ccc2oc3ccc(Br)cc3c2c1C(=O)Nc1ccncc1" ? 270 to 273 °C

What does the record list as melting point for "NC(=O)c1cc(-n2cncn2)ccc1N" ? 216 to 218 °C

What does the record list as melting point for "COC(=O)c1cccc(OCc2ccc(Cl)c(Cl)c2)c1" ? 87 to 88 °C

What does the record list as melting point for "O=C(CCCCCl)c1cccc2cc3c(C(=O)CCCCCl)cccc3cc12" ? 146 to 148 °C

What does the record list as melting point for "O=C(O)Cc1c(C(=O)c2cc3c(cn2)CCCC3)[nH]c2cc(Cl)ccc12" ? 225 °C

What does the record list as melting point for "CCOC(=O)[C@H](CSCc1ccccc1)NC(=O)C(C)(C)NC(=O)[C@@H](S)C(C)C" ? 87 to 91 °C
